target: Prostaglandin G/H synthase 1 (Homo sapiens, UniProt P23219)
Sequence (P23219 whole entry): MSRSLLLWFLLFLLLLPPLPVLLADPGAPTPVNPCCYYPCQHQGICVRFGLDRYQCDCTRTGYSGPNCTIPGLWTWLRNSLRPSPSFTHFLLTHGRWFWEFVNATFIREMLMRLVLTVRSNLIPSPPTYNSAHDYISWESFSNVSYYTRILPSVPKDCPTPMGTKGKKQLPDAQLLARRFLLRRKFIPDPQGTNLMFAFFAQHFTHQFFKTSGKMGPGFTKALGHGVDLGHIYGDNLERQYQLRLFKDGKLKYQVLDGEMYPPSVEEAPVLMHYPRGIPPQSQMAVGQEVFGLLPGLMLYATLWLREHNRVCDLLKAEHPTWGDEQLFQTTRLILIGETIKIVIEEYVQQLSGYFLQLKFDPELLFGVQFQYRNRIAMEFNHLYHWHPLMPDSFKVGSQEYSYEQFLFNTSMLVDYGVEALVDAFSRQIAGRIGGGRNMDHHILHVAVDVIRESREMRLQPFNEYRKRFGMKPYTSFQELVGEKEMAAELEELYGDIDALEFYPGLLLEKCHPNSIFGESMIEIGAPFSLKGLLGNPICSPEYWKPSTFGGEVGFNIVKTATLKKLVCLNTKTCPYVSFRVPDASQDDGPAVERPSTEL
pIC50: −log10 of the molar value.
property_label: pIC50

NS(=O)(=O)c1ccc(-c2ccsc2-c2ccc(F)cc2)cc1 = 5.89
C[Se](=O)(=O)c1ccc(-c2ccsc2-c2ccc(F)cc2)cc1 = 4.49

A. COC(=O)c1ccc(-c2ccsc2-c2ccc(F)cc2)cc1
B. NC(=O)c1ccc(-c2ccsc2-c2ccc(F)cc2)cc1
C. CS(=O)(=O)c1ccc(-c2sc(Br)cc2-c2ccc(F)cc2)cc1
D. N#Cc1ccc(-c2ccsc2-c2ccc(F)cc2)cc1
E. OCc1ccc(-c2ccsc2-c2ccc(F)cc2)cc1
Falling order of pIC50, please. A ranking is expressed here by listing the labels in the requested order.
D, E, C, B, A
(D: 6.68, E: 6.46, C: 5.96, B: 5.49, A: 4.77)

----------
molecular target: Prostaglandin G/H synthase 2 (Homo sapiens, UniProt P35354); experiment: Inhibitory activity against human COX-2 expressed in baculovirus infected Sf9 cells; type: cell-based
property_label: IC50 (nM)

Sample answers from the record:
NS(=O)(=O)c1ccc(-c2ccsc2-c2ccc(F)cc2)cc1 = 30
CC(=O)NS(=O)(=O)c1ccc(-c2ccsc2-c2ccc(F)cc2)cc1 = 5400
C[Se](=O)(=O)c1ccc(-c2ccsc2-c2ccc(F)cc2)cc1 = 550
CC(C)(O)c1cc(-c2ccc(S(N)(=O)=O)cc2)c(-c2ccc(F)cc2)s1 = 410
CS(=O)(=O)c1ccc(-c2sccc2-c2ccc(F)cc2)cc1 = 4300

a. CS(=O)(=O)c1ccc(-c2sc(Br)cc2-c2ccc(F)cc2)cc1
b. NS(=O)(=O)c1ccc(-c2sccc2-c2ccc(F)cc2)cc1
Please indicate which item has the smaller measured IC50: a versus b Could you answer with the label of the item you picked?
a

I. COC(=O)c1cc(-c2ccc(S(N)(=O)=O)cc2)c(-c2ccc(F)cc2)s1
II. CC(C)(O)c1cc(-c2ccc(F)cc2)c(-c2ccc(S(N)(=O)=O)cc2)s1
Lab note: check whether I or II shows the higher recorded IC50. Indicate which entry you chose by stating its label.
II
(II: 1600 nM, I: 70 nM)

----------
target: Prostaglandin G/H synthase 1 (Homo sapiens, UniProt P23219)
property_label: IC50

CS(=O)(=O)c1ccc(-c2sccc2-c2ccc(F)cc2)cc1 = > 50 µM
CC(=O)NS(=O)(=O)c1ccc(-c2ccsc2-c2ccc(F)cc2)cc1 = > 50 µM

Now consider the entry below.
Give Prostaglandin G/H synthase 1 (Homo sapiens, UniProt P23219) IC50 for CS(=O)(=O)c1ccc(-c2ccsc2-c2ccc(F)cc2)cc1
> 100 µM

----------
Quick list: IC50 per entry.
Biological target: Prostaglandin G/H synthase 2 (Homo sapiens)
Sequence (P35354 whole entry): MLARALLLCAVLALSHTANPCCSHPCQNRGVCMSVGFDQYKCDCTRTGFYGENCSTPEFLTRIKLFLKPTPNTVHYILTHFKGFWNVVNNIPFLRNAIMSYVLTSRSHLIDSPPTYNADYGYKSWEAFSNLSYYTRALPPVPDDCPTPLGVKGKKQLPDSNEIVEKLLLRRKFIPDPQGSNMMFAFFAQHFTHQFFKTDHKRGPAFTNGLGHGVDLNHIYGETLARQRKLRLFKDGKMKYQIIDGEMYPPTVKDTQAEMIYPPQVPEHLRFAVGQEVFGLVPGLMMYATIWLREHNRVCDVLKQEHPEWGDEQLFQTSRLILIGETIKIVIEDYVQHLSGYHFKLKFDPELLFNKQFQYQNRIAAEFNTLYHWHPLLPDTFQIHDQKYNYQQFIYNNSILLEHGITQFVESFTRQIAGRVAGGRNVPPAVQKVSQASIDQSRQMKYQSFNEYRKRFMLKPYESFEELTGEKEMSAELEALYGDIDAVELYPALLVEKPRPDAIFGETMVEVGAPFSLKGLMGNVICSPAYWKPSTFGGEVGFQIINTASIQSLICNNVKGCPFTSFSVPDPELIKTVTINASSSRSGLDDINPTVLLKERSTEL
Experiment: Inhibitory activity against human COX-2 expressed in baculovirus infected Sf9 cells
Type: cell-based

Look over these answered cases.
O=C(O)Cc1ccc(-c2ccsc2-c2ccc(F)cc2)cc1 = > 30 µM
CCS(=O)(=O)c1ccc(-c2ccsc2-c2ccc(F)cc2)cc1 = > 30 µM
C[S+]([O-])c1ccc(-c2ccsc2-c2ccc(F)cc2)cc1 (stereo not given) = > 30 µM

# context switch: different compound, same IC50
Would you kindly share the measured IC50 for OCc1ccc(-c2ccsc2-c2ccc(F)cc2)cc1 ?
> 30 µM
